molecular target: CK1ε (Homo sapiens, UniProt P49674); experiment: CK1ε kinase assay (Caliper LabChip electrophoretic separation of fluoresceinated peptide substrate and product); assay type: biochemical; details: 200 pM CK1ε, 50 μM ATP, 1.5 μM peptide, 22 hours at room temperature; read-out: CK1ε IC50 range
Sequence (P49674 whole entry): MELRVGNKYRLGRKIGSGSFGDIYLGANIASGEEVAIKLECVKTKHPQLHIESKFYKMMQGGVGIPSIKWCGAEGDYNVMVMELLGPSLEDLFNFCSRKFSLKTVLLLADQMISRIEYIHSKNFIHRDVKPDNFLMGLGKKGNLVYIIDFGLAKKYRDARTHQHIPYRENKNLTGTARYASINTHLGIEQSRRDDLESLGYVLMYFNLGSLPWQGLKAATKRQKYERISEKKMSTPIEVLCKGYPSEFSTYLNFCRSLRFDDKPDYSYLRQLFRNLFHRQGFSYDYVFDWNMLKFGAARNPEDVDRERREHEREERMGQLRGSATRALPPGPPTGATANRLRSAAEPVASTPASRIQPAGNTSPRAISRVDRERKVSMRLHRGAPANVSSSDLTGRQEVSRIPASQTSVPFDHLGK
REPORTED PROPERTY: IC50

Exam item: Query IC50 for CC(C)(C)NC(=O)N1Cc2c(C(N)=O)c(-c3ccc(F)c(Cl)c3)nn2C2(C1)CC(F)(F)C2 [Compound A39]
Marked response: 0.01 to 10 nM

Exam item: Query IC50 for NC(=O)c1c(-c2ccc(F)cc2)nn2c1CN(C(=O)NC1CCCCC1)CC2 [Compound 3]
Marked response: 10 to 100 nM

Exam item: Query IC50 for NC(=O)c1c(-c2ccc(Cl)c(Cl)c2)nn2c1CN(C(=O)NC1(C(F)F)CC(F)(F)C1)CC2 [Compound 305]
Marked response: 0.01 to 10 nM

Exam item: Query IC50 for CC(C)(CC#N)NC(=O)N1CCn2nc(-c3ccc(F)c(Cl)c3)c(C(N)=O)c2C1 [Compound 186]
Marked response: 0.01 to 10 nM

Exam item: Query IC50 for CC1CN(C(=O)NC2CC(F)(F)C2)Cc2c(C(N)=O)c(-c3cccc(Cl)c3)nn21 (single isomer, unassigned) [Compound A110]
Marked response: 0.01 to 10 nM

Exam item: Query IC50 for NC(=O)c1c(-c2cccc(Cl)c2)nn2c1CN(C(=O)NCC1CCC(F)(F)CC1)CC2 [Compound 180]
Marked response: 0.01 to 10 nM

Just for reference, patent US9273058B2 is where these values come from.
